# procedure_summary: Tmax in Sprague-Dawley rat at 10 mg/kg, po
# Assay type: ADME, organism-based
# Set-up: dose 10 mg/kg, route oral
# experimental_setup: in vivo
property_name: Tmax
Put down the number, then write its unit next to it.

// query // lookup Tmax for COc1ccc(N(C(=O)CN2C=CN(c3ccccc3)C(=O)[C@H](Cc3n[nH]c4ccccc34)C2=O)C(C)C)cc1
// result 40.2 min

----------
# target_desc: Melanocortin receptor 4 (Homo sapiens)
# procedure_summary: Agonist activity at human MC4R expressed in CHO cells after 4 hrs by luciferase reporter gene assay relative to alpha-melanocyte stimulating hormone
# Format: functional, cell-based
property_name: Activity
Kindly provide the number alone.

// known answers, use as guide
compound	target_desc	Activity
COc1ccc(N(C(=O)CN2C=CN(c3ccccc3)C(=O)C(Cc3n[nH]c4cc(F)ccc34)C2=O)C(C)C)cc1 (racemic)	Melanocortin receptor 4 (Homo sapiens)	39
CC(C)N(C(=O)CN1C=CN(c2ccccc2)C(=O)C(Cc2n[nH]c3cc(F)ccc23)C1=O)c1ccccc1 (racemic)	Melanocortin receptor 4 (Homo sapiens)	19

Now examine the next entry.
// query Given the compound CC(C)N(C(=O)CN1C=CN(c2ccccc2)C(=O)C(Cc2n[nH]c3ccccc23)C1=O)c1ccc(O)cc1 (single isomer, unassigned; form 1) , what is its reported Activity?
// result 44

----------
# procedure_summary: Oral bioavailability in Sprague-Dawley rat at 10 mg/kg
# Format: ADME, organism-based
# experimental_setup: in vivo
property_name: bioavailability (%)
Numeric only. Scale: %

// query I would be grateful if you could share the reported bioavailability for COc1ccc(N(C(=O)CN2C=CN(c3ccccc3)C(=O)[C@H](Cc3n[nH]c4ccccc34)C2=O)C(C)C)cc1 .
// result 6.2

----------
# target_desc: Melanocortin receptor 4 (Homo sapiens, UniProt P32245)
# Sequence (P32245 whole entry): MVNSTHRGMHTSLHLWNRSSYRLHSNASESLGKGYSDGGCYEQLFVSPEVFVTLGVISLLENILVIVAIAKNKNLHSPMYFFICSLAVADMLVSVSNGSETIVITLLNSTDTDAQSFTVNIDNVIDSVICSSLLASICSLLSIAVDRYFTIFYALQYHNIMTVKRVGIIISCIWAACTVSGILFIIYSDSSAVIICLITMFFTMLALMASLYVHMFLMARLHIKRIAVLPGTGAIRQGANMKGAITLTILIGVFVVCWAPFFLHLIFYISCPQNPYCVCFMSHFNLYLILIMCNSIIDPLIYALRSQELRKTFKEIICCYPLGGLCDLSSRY
# procedure_summary: Agonist activity at human MC4R expressed in CHO cells after 4 hrs by luciferase reporter gene assay
# Format: functional, cell-based
# experimental_setup: read-out: pEC50 (converted)
property_name: log10(EC50) (log10 of the value in nM)
Units before log transform: nM; reported quantity: EC50; transform: log10.

Example entries and their recorded answers appear below.
compound	log10(EC50)
COc1ccc(N(C(=O)CN2C=CN(c3ccccc3)C(=O)[C@H](Cc3n[nH]c4ccccc34)C2=O)C(C)C)cc1	2.53
O=C1C(Cc2n[nH]c3ccccc23)C(=O)N(c2ccccc2)C=CN1CC(=O)N1CCCCc2ccccc21 (racemic)	2.51
CC(C)N(C(=O)CN1C=CN(c2ccccc2)C(=O)[C@H](Cc2n[nH]c3ccccc23)C1=O)c1ccccc1	3.03
CC(C)N(C(=O)CN1C=CN(c2ccccc2)C(=O)C(Cc2n[nH]c3ccccc23)C1=O)c1ccc(O)cc1 (racemic)	3.00

// query Find the recorded log10(EC50) belonging to O=C1[C@@H](Cc2n[nH]c3ccccc23)C(=O)N(c2ccccc2)C=CN1CC(=O)N1CCCCc2ccccc21 and report it.
// result 2.00

// query What do we get for COc1ccc(N(C(=O)CN2C=CN(c3ccccc3)C(=O)C(Cc3n[nH]c4cc(F)ccc34)C2=O)C(C)C)cc1 (racemic) ?
// result 2.55

// query Here is the next compound: COc1ccc(N(C(=O)CN2C=CN(c3ccccc3)C(=O)C(Cc3cc[nH]n3)(Cc3n[nH]c4ccccc34)C2=O)C(C)C)cc1 (racemic)
// result 3.02

Just for reference, ChEMBL document CHEMBL1157626 is where these values come from.
